src = patent EP4620954A1

# Target Or System: CDK1/Cyclin B (Homo sapiens)
# Construct: purchased Invitrogen PR4768C
# Sequence (P06493 whole entry): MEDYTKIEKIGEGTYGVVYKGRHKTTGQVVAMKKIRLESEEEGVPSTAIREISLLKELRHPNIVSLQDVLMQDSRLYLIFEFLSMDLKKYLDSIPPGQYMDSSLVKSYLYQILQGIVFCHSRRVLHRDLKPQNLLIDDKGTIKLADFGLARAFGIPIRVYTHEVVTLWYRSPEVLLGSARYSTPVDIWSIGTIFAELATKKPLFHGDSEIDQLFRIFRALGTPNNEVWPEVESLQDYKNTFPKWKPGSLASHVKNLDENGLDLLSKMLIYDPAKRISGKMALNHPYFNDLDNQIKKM
# Sequence (P14635 whole entry partner): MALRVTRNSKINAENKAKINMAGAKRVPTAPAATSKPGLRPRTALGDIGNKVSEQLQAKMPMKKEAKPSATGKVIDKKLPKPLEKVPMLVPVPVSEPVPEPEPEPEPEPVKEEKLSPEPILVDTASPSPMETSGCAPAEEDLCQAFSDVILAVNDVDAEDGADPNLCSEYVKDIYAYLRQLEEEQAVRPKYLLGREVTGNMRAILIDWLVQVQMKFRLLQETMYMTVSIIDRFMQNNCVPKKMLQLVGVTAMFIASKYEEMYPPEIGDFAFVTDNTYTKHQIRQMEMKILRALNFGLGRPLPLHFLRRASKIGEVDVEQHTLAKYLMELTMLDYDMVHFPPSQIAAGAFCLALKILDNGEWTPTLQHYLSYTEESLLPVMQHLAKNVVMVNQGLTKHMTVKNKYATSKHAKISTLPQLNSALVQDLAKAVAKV
# Assay Summary: CDK1 kinase activity assay (TR-FRET)
# Format: biochemical
# Condition Label: TR-FRET; peptide mix containing 10 µM ATP; 90 min at 23 °C; read-out: CDK1/Cyclin B1 IC50
# Procedure: Compounds were dissolved in DMSO and serially diluted 3-fold to generate 11 concentrations. 100 nL of each compound was added to 384-well plates, followed by the addition of 5 µL of 2× CDK2/Cyclin E1 or CDK1/Cyclin B enzyme mixed solution. 5 µL of buffer (50 mM Hepes (pH 7.5), 10 mM MgCl2, 1 mM EDTA, 0.01% Brij-35, 2 mM DTT (prepared freshly)) was added to the complete inhibition control wells. […] The IC50 values of the compounds were calculated using GraphPad Prism nonlinear fitting equation. […]
Value Type: pIC50
The scale used: pIC50 is minus the common logarithm of the concentration in molar units.

Study these solved cases before continuing.
CC(C)NC(=O)O[C@@H]1CC[C@H](c2cc(Nc3ccc(N4CCN(C)CC4)cc3)n[nH]2)C1 | 6.86
Cn1nc(CS(C)(=O)=O)cc1C(=O)Nc1cc([C@@H]2C[C@H](OC(=O)N3CCC3(C)C)CO2)[nH]n1 | 7.27
CC(C)NC(=O)O[C@@H]1CC[C@H](c2cc(NC(=O)c3cc(CS(C)(=O)=O)nn3C)n[nH]2)C1 | 7.05
COCc1cc(C(=O)Nc2cc([C@H]3CC[C@@H](OC(=O)NC(C)C#N)C3)[nH]n2)n(C)n1 (some centres unmarked) | 7.11
CCS(=O)(=O)Cc1cc(C(=O)Nc2cc([C@H]3CC[C@@H](OC(=O)NC(C)C)C3)[nH]n2)n(C)n1 | 7.55
COCc1cc(C(=O)Nc2cc([C@H]3CC[C@@H](OC(=O)NCC=C(F)F)C3)[nH]n2)n(C)n1 | 7.11

According to the records, this compound C=C(C)c1ccncc1O[C@@H]1CC[C@H](c2cc(NC(=O)Cc3cccc(P(C)(C)=O)c3)n[nH]2)C1 displays pIC50 of 7.95

According to the records, this compound COCc1cc(C(=O)Nc2cc([C@H]3CC[C@@H](OC(=O)N(C)C4CCC(=C(F)F)CC4)C3)[nH]n2)n(C)n1 (some centres unmarked) displays pIC50 of 7.37

According to the records, this compound C=C(C)c1ccncc1O[C@@H]1CC[C@H](c2cc(NC(=O)Cc3ccc(N4CCCC4=O)cc3)n[nH]2)C1 displays pIC50 of 9.57

According to the records, this compound CC1(C)CCN1C(=O)O[C@@H]1CC[C@H](c2cc(NC(=O)Cc3ccc(N4CCCC4=O)cc3)n[nH]2)C1 displays pIC50 of 6.23

According to the records, this compound C#CC(C)NC(=O)O[C@@H]1CC[C@H](c2cc(NC(=O)c3cc(COC)nn3C)n[nH]2)C1 (some centres unmarked) displays pIC50 of 6.34

According to the records, this compound CC(C)NC(=O)O[C@@H]1CC[C@H](c2cc(NC3CCN(S(C)(=O)=O)CC3)n[nH]2)C1 displays pIC50 of 5.51

According to the records, this compound CC(C)NC(=O)O[C@@H]1CC[C@H](c2cc(Nc3ccc(CN4CCNCC4)cc3)n[nH]2)C1 displays pIC50 of 5.99

According to the records, this compound CC1(C)CCN1C(=O)O[C@@H]1CC[C@H](c2cc(NC(=O)Cc3cccc(P(C)(C)=O)c3)n[nH]2)C1 displays pIC50 of 5.73

----------
# Target Or System: CDK2/Cyclin E1 (Homo sapiens, UniProt P24941)
# Construct: purchased Invitrogen PV6296
# Assay Summary: CDK2 kinase antagonistic activity assay (TR-FRET)
# Assay type: biochemical
Value Type: pIC50
The scale used: pIC50 is minus the common logarithm of the concentration in molar units.

Value (pIC50, CDK2/Cyclin E1 (Homo sapiens, UniProt P24941)) for record CC(C)NC(=O)O[C@@H]1CC[C@H](c2cc(Nc3ccc(N4CCN(CC(F)(F)F)CC4)cc3)n[nH]2)C1 = 7.89

----------
Listed below: efflux ratio at 120 min, 2 µM values for each entry.
# Test system: P-glycoprotein (P-gp)
# Assay Summary: Permeability and transporter substrate evaluation, Caco-2 monolayer
# Type: in vitro ADME
# Condition Label: human, Caco-2, Table 4 experimental system, Caco-2, 2.00 µM

Value (efflux ratio at 120 min, 2 µM, P-glycoprotein (P-gp)) for record CC(C)NC(=O)O[C@@H]1CC[C@H](c2cc(NC(=O)c3cc(CS(C)(=O)=O)nn3C)n[nH]2)C1 [Compound 7] = > 55.4

Value (efflux ratio at 120 min, 2 µM, P-glycoprotein (P-gp)) for record COCc1cc(C(=O)Nc2cc([C@H]3CC[C@@H](OC(=O)NC45CC6CC(CC(C6)C4)C5)C3)[nH]n2)n(C)n1 [Compound 6] = 48.7

Value (efflux ratio at 120 min, 2 µM, P-glycoprotein (P-gp)) for record C#CC(C)NC(=O)O[C@@H]1CC[C@H](c2cc(NC(=O)c3cc(COC)nn3C)n[nH]2)C1 (stereo partly shown) [Compound 4] = 390

Value (efflux ratio at 120 min, 2 µM, P-glycoprotein (P-gp)) for record COCc1cc(C(=O)Nc2cc([C@H]3CC[C@@H](OC(=O)NCC=C(F)F)C3)[nH]n2)n(C)n1 [Compound 3] = 150

Value (efflux ratio at 120 min, 2 µM, P-glycoprotein (P-gp)) for record COCc1cc(C(=O)Nc2cc([C@H]3CC[C@@H](OC(=O)NC(C)C#N)C3)[nH]n2)n(C)n1 (stereo partly shown) [Compound 1] = > 40.2

Value (efflux ratio at 120 min, 2 µM, P-glycoprotein (P-gp)) for record CC(C)NC(=O)O[C@@H]1CC[C@H](c2cc(Nc3ccc(N4CCN(C)CC4)cc3)n[nH]2)C1 [Compound 9] = 84.2

Value (efflux ratio at 120 min, 2 µM, P-glycoprotein (P-gp)) for record COCc1cc(C(=O)Nc2cc([C@H]3CC[C@@H](OC(=O)N(C)C4CCC(=C(F)F)CC4)C3)[nH]n2)n(C)n1 (stereo partly shown) [Compound 2] = 199

----------
# Target Or System: CDK2/Cyclin E1 (Homo sapiens, UniProt P24941)
# Construct: purchased Invitrogen PV6296
# Assay Summary: CDK2 kinase antagonistic activity assay (TR-FRET)
# Type: biochemical
# Condition Label: TR-FRET; peptide mix containing 10 µM ATP; 90 min at 23 °C; read-out: CDK2/Cyclin E1 IC50
Value Type: log10(IC50) (log10 of the value in nM)
Please interpret these as log10 of IC50 where IC50 is in nM.

Study these solved cases before continuing.
COCc1cc(C(=O)Nc2cc([C@H]3CC[C@@H](OC(=O)NC45CC6CC(CC(C6)C4)C5)C3)[nH]n2)n(C)n1 | -0.02
COCc1cc(C(=O)Nc2cc([C@H]3CC[C@@H](OC(=O)N(C)C4CCC(=C(F)F)CC4)C3)[nH]n2)n(C)n1 (stereo partly shown) | 0.71
CC(C)NC(=O)O[C@@H]1CC[C@H](c2cc(NC(=O)c3cc(CS(=O)(=O)C4CC4)nn3C)n[nH]2)C1 | 0.53
COCc1cc(C(=O)Nc2cc([C@H]3C[C@@H](F)[C@@H](OC(=O)NC(C)C)C3)[nH]n2)n(C)n1 | 0.03
C=C(C)c1ccncc1O[C@@H]1CO[C@H](c2cc(NC(=O)Cc3cccc(P(C)(C)=O)c3)n[nH]2)C1 | 1.37

Shifting focus to the compound that follows.
Value (log10(IC50), CDK2/Cyclin E1 (Homo sapiens, UniProt P24941)) for record Cn1nc(CS(C)(=O)=O)cc1C(=O)Nc1cc([C@@H]2C[C@H](OC(=O)N3CCC3(C)C)CO2)[nH]n1 = 0.97

----------
# Assay Summary: Permeability and transporter substrate evaluation, Caco-2 monolayer
# Assay type: in vitro ADME
# Condition Label: human, Caco-2, Table 5 experimental system; Caco-2, 2.00 µM, 120 min
Value Type: efflux ratio at 2 h, 2 µM
Give a plain numeric answer without units written out.

Study these solved cases before continuing.
COCc1cc(C(=O)Nc2cc(C3CCC(OC(=O)NC(C)C)C3)[nH]n2)n(C)n1 (stereo not drawn) [PF-07104091, reference compound] | 8.57
CC(C)NC(=O)O[C@@H]1CC[C@H](c2cc(Nc3ccc(N4CCN(C)CC4)cn3)n[nH]2)C1 | 5.09

Shifting focus to the compound that follows.
According to the records, this compound CC(C)NC(=O)O[C@@H]1CC[C@H](c2cc(Nc3ccc(CN4CCN(C)CC4)c(F)c3)n[nH]2)C1 displays efflux ratio at 2 h, 2 µM of 3.3

----------
# Assay Summary: Permeability and transporter substrate evaluation, Caco-2 monolayer
# Type: in vitro ADME
# Condition Label: human, Caco-2, Table 4 experimental system, Caco-2, 2.00 µM
# Description: Cell: Caco-2 cells Instrument: water purification equipment, ELGA LabWate; biosafety cabinet, Nuaire; thermostatic CO2 incubator, Thermo; microplate reader, PerkinElmer; LC-MS/MS, AB SCIEX. […] The content of the test samples in each sample was measured using the liquid chromatography-tandem mass spectrometry (LC-MS/MS) method. The apparent permeability coefficient and the efflux rate were calculated. […]
Listed below: Papp A→B at 120 min, 2 µM values for each entry.
The answer is to be given in ×10⁻⁶ cm/s; state only the numeric part.

COCc1cc(C(=O)Nc2cc([C@H]3CC[C@@H](OC(=O)N(C)C4CCC(=C(F)F)CC4)C3)[nH]n2)n(C)n1 (stereo partly shown) | 0.218
COCc1cc(C(=O)Nc2cc([C@H]3CC[C@@H](OC(=O)NCC=C(F)F)C3)[nH]n2)n(C)n1 | 0.218
C#CC(C)NC(=O)O[C@@H]1CC[C@H](c2cc(NC(=O)c3cc(COC)nn3C)n[nH]2)C1 (stereo partly shown) | 0.0791
CC(C)NC(=O)O[C@@H]1CC[C@H](c2cc(Nc3ccc(N4CCN(C)CC4)cc3)n[nH]2)C1 | 0.52

According to the records, this molecule COCc1cc(C(=O)Nc2cc([C@H]3CC[C@@H](OC(=O)NC45CC6CC(CC(C6)C4)C5)C3)[nH]n2)n(C)n1 displays Papp A→B at 120 min, 2 µM of 0.54
